Recorded measurements of FACS binding data, one per entry
# target.of.assay: T1, Mutant CD33-GFP M7 (R98D) on 293FT cells (UniProt P20138 18-364)
# T1 construct: whole, on cells; not shown: GFP fused to CD33
# assay.remarks: FACS, mutant CD33-GFP on 293FT cells
Give the figure only, with no unit attached.

binder | measured.endpoint | result.number
hu195 (antibody, V domains shown) VH: QVQLVQSGAEVKKPGSSVKVSCKASGYTFTDYNMHWVRQAPGQGLEWIGYIYPYNGGTGYNCIKFKSKATITADESTNTAYMELSSLRSEDTAVYYCARGRPAMDYWGQGTLVTVSS VL: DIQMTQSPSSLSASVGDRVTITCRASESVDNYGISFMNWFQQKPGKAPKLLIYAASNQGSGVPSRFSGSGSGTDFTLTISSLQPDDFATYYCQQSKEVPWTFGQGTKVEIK | FACS binding data | 98.4
sdCD33_3 (VHH) VHH: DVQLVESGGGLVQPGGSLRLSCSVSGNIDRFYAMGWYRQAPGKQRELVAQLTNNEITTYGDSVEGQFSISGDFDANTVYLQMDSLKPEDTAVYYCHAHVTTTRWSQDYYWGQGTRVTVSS | FACS binding data | 98.8

Kindly review the next binder as well.
Exercise: In one line, give reported FACS binding data of the entry sdCD33_5 (VHH, sdAb from a naive llama phage library; also called 413; sdAb413) VHH: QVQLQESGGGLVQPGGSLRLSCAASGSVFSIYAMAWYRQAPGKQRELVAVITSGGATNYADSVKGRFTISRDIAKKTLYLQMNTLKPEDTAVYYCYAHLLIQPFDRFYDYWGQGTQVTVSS .
Solution: 97
